The origin of these recorded values is paper PMC8973439.

Target: Mushroom tyrosinase (Agaricus bisporus, UniProt C7FF04)
Sequence (C7FF04 1-392): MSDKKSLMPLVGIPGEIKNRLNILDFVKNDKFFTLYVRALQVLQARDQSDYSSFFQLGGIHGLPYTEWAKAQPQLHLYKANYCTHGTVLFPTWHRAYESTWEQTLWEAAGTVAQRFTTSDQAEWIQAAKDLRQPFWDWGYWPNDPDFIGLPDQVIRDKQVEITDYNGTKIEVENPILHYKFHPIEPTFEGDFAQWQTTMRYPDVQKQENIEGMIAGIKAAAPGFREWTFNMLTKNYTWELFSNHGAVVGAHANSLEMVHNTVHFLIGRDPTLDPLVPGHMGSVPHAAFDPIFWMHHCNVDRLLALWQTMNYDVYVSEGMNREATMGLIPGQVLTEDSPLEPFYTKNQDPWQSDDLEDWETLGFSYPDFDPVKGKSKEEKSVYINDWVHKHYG
Assay: Tyrosinase inhibitory activity (L-DOPA oxidation, 475 nm)
Format: biochemical
Details: synthetic peptides (purity more than 95%); mushroom tyrosinase, 2.5 mM L-DOPA, 200 mM pH 6.8 PBS, preincubation 15 min room temperature, 10 min 30°C, 475 nm; three parallel tests; read-out: IC50 (tyrosinase inhibition)
Where a SMILES comes first, the peptide text is derived from it.
We begin with a simple list: items and their reported pIC50.
Notebook: values listed as pIC50 are -log10 of the concentration (mol/L).

CC(C)C[C@H](NC(=O)[C@@H](NC(=O)[C@H](CC(C)C)NC(=O)[C@H](CCC(N)=O)NC(=O)[C@@H](N)Cc1c[nH]c2ccccc12)[C@@H](C)O)C(=O)O [WQLTL] (H-WQLTL-OH) = 2.41

State the recorded pIC50 for this entry: CC(C)C[C@H](NC(=O)[C@H](CC(=O)O)NC(=O)[C@@H](N)Cc1ccccc1)C(=O)NCC(=O)N[C@@H](Cc1ccccc1)C(=O)N[C@@H](CC(C)C)C(=O)N[C@@H](C)C(=O)N[C@@H](CCCNC(=N)N)C(=O)O (H-FDLGFLAR-OH)
2.40

What pIC50 value was documented for this molecule, CC(C)[C@H](NC(=O)[C@H](CCC(=O)O)NC(=O)[C@H](CO)NC(=O)[C@@H](N)Cc1c[nH]c2ccccc12)C(=O)N[C@@H](Cc1ccccc1)C(=O)O [WSEVF] (H-WSEVF-OH) ?
2.24
